Each entry below carries its recorded pKd.
ASSAY_TARGET: T1, recombinant human RON SEMA and PSI domains (human, UniProt Q04912 25-571)
T1 construct: domain: SEMA+PSI; Commercial protein (R&D Systems); also called rhRON SEMA+PSI; hRON SEMA+PSI
ASSAY_OVERVIEW: SPR, Ab captured on anti-human IgG Fc, 37 C, screening
Note on units: pKd is unitless, being -log10 of a concentration expressed in mol/L.

Enquiry: What pKd value was documented for this binder, Sh07F01-83 (antibody, human IgG1, kappa, V domains shown, Humanized, human IgG1/kappa: Sh07F01 Hv3-48 D28T T60A L63V E65G IgG1 + Sh07F01 Kv1-9 F1 Kappa) VH: EVQLVESGGGLVQPGGSLRLSCAASGFTFSRHWMSWVRQAPGKGLEWVSEINPDSRTINYAPSVKGRFTISRDNAKNSLYLQMNSLRAEDTAVYYCARRVRIHYYGAMDSWGQGTTVTVSS VL: DIQLTQSPSFLSASVGDRVTITCRASQNVGSSLVWYQQKPGKAPKTLIYSASFLYSGVPSRFSGSGSGTEFTLTISSLQPEDFATYYCQQYNNYPLTFGGGTKVEIKR ?
Return: 9.27

Enquiry: Same read-out for Sh07F01-2 (antibody, human IgG1, kappa, V domains shown, also called Chimeric 07F01 C102S) VH: EVKLLESGGGLVQPGGSLKLSCAASGFDFSRHWMSWVRLAPGKGLEWIAEINPDSRTINYTPSLKEKFIISRDNAKNSLFLQMNRVRSEDTALYYCARRVRIHYYGAMDSWGQGTSVTVSS VL: DIVLTQSQKIVSTSVGARVSVTCKASQNVGSSLVWYQQKPGQSPKTLIYSASFRYSGVPDRFTGSGSGTDFTLTISNVQSEDLADYFCQQYNNYPLTFGAGTKLELKR ?
Return: 9.42

Enquiry: Same read-out for Sh29B06-23 (antibody, human IgG1, kappa, V domains shown, Humanized, human IgG1/kappa: Hu29B06 Hv4-59 IgG1 (CDR graft with back mutations) + Sh29B06 Kv2-28 Kappa) VH: QVQLQESGPGLVKPSETLSLTCTVSGDSITSGYWNWIRKPPGKKLEYMGYISYSGKTYYNPSLKSRITISRDTSKNQYSLKLSSVTAADTAVYYCARSKYDYAMDYWGQGTLVTVSS VL: DIVMTQSPLSLPVTPGEPASISCRASEIVDNFGISFMNWYLQKPGQSPQLLIYAASNQGSGVPDRFSGSGSGTDFTLKISRVEAEDVGVYYCQQSKEVPPTFGGGTKVEIKR ?
Return: 9.19
